The reported numbers originate from PubChem BioAssay AID1159580.

assay: chemical genetic growth profiling, strain panel (AID 1159580);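 note: tested at 20 µM; growth read once vehicle control cultures reached saturation at 30 °C; 1 = growth at the plate median or of vehicle wells; lower values mean less growth of the strain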; details: S. cerevisiae deletion strains, growth OD, locus YPL055C, strain LGE1, hits give low values
The campaign covered roughly 5,500 compounds. About 2,000 (36%) were called active. Roughly 18% stayed inconclusive and do not appear here. The list shows a part of the results.
Please provide measured normalized growth for the entries that follow.
One number for each entry.

Examples with their reported normalized growth follow.
{"columns": ["smiles_input", "value_measured"],
 "data": [
  ["COc1ccc(-c2coc3c(OC)c(O)ccc3c2=O)cc1", 0.86],
  ["COc1ccc(-c2coc3c(OC)c(OC)ccc3c2=O)cc1", 0.888]
]}

From here, focus on the item given below.
IN: Form field: reported normalized growth of O=C(OCCN1CCCCC1)c1c[nH]c2ccccc12
OUT: 0.997
